Listed next: entries and their corresponding GI50.
tested on: UACC-62; test: NCI tumour cell line growth inhibition, 48 h
Calls of active or inactive are those of the source. Rule as the data show it: active = GI50 up to about 1.1 µM and inactive = higher.
valueKind: GI50

| molecule | targetDesc | valueKind | recordedResult |
| --- | --- | --- | --- |
| CCOC(=O)C1=COC(C)(CCc2ccccc2)CC1=O (stereo not drawn) | UACC-62 | GI50 | 55.7 µM (inactive) |
| CCCC(=O)N(C(=O)CCC)C1=C(Cl)C(=O)c2ccccc2C1=O | UACC-62 | GI50 | 2.49 µM (inactive) |
| C=C1CCC2C(C)(CO)C(O)CCC2(C)C1C/C=C1\C(=O)OCC1O (stereo not drawn) | UACC-62 | GI50 | 18.8 µM (inactive) |
| CC(=O)O[C@@H]1[C@@H](C)[C@]2(CC(c3ccoc3)OC2O)C2CCC3O[C@]3(C)[C@]2(C)[C@@H]1OC(C)=O (stereo partly drawn) | UACC-62 | GI50 | 20.4 µM (inactive) |
| COc1cc2c(cc1OC)C(=O)/C(=C/c1ccc([N+](=O)[O-])cc1)CC2 | UACC-62 | GI50 | > 10 µM (inactive) |
| CC(C)CC(N)C(=O)OCN1C(=O)C2C3C=CC(C2C1=O)C1C2C(=O)N(COC(=O)C(N)CC(C)C)C(=O)C2C31 (stereo not drawn) | UACC-62 | GI50 | > 100 µM (inactive) |
| CC#CC1C2CCCC1(CSc1ccccc1)NC(=O)O2 (stereo not drawn) | UACC-62 | GI50 | > 100 µM (inactive) |
| CN(CCCNC(=O)c1nn(-c2ccc(Cl)cc2Cl)c2c1ccc1ccccc12)CCCNC(=O)c1nn(-c2ccc(Cl)cc2Cl)c2c1ccc1ccccc12 | UACC-62 | GI50 | 1.65 µM (inactive) |
| CC1(C)C(c2ccccc2)=[N+]([O-])C(C)(C)N1O | UACC-62 | GI50 | > 10 µM (inactive) |
| COC(=O)C1Cc2c(OC)ccc(OC)c2CC(C(=O)OC)C1=O (stereo not drawn) | UACC-62 | GI50 | > 100 µM (inactive) |
| CC1(C)S[C@@H]2[C@H](NC(=O)/C=C/c3ccccc3)C(=O)N2[C@H]1C(=O)O | UACC-62 | GI50 | > 100 µM (inactive) |
| Cc1c(C#N)c2nc3ccccc3n2c(=O)/c1=C/Nc1ccc(Cl)cc1 | UACC-62 | GI50 | 15.8 µM (inactive) |
| CC1OC(OC2C(OC(=O)[C@@H]3CC(C)(C)C[C@@H]4C5=CC[C@@H]6[C@@]7(C)C[C@H](O)[C@H](OC8OC(CO)C(O)C(O)C8O)[C@@](C)(CO)C7[C@H](O)C[C@@]6(C)[C@]5(C)C[C@@H](O)[C@H]43)OCC(O)C2O)C(O)C(O)C1O (stereo partly drawn) | UACC-62 | GI50 | > 15 µM (inactive) |
| Cc1ccccc1Nc1nc2ccccc2nc1NS(=O)(=O)c1ccccc1 | UACC-62 | GI50 | 62.2 µM (inactive) |
| CC(C)(CN1CCCCC1)C(/C=C/c1ccccc1)=N\NC(=O)N/N=C(/C=C/c1ccccc1)C(C)(C)CN1CCCCC1 | UACC-62 | GI50 | 1.54 µM (inactive) |
| COc1ccccc1NC(=O)C1=C(C)NC(C)=C(C(=O)Nc2ccccc2OC)C1/C=C/c1ccccc1 | UACC-62 | GI50 | 97.9 µM (inactive) |
| COCCN1C2=CCCCC2=Nc2c(N)nc(N)nc21 | UACC-62 | GI50 | > 100 µM (inactive) |
| N#Cc1c(-c2ccccc2)c(C#N)c(=O)n(NS(=O)(=O)c2ccccc2)c1O | UACC-62 | GI50 | > 100 µM (inactive) |
